assayed-target: T1, bovine serum albumin (BSA) (bovine, UniProt P02769 25-607)
T1 construct: Control antigen coated at 1% in PBS (pH 7.4); also called negative control antigen
T1 sequence (P02769 25-607 limits assumed): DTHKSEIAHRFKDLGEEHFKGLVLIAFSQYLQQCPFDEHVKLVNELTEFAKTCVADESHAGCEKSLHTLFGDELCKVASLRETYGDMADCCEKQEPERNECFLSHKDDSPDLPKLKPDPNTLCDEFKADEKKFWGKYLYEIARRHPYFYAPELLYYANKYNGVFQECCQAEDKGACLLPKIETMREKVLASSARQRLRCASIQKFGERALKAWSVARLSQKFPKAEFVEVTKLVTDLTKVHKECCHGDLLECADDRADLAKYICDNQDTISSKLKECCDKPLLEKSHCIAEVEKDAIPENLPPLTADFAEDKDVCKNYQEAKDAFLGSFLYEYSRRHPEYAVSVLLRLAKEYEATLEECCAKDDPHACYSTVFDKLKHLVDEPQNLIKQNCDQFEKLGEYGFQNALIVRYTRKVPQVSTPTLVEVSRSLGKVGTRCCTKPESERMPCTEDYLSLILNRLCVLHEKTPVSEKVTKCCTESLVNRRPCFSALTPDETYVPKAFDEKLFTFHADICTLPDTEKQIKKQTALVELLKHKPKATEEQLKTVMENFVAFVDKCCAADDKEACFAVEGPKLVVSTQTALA
measurement-protocol: phage ELISA, 1% BSA coated, anti-M13-HRP detection
assay-metric: OD492 nm
Answer with the number, then the unit.

binder: SC06-071 (scFv, Vl 139-248); also called single-chain phage antibody SC06-071) scFv: EVQLVESGGGVVQPGRSLRLSCAASGFTFSSYGMHWVRQAPGKGLEWVAMIWSDGSNKYYADSVKGRFTISRDNSKNTLYLQMNSLRVEDTAVYYCASNYGSGSYWGGFDYWGQGTLVTVSSGTGGSGGTGSGTGGSTQSALTQPASVSGSPGQSITISCTGTSSDVGGYNLVSWYQQHPGKAPKLMIYEGSKRPSGVSNRFFGSKSGDTASLTISGLQAEDEADYYCSSYTTSSTHVFGTGTKVTVL
OD492 nm: 0.043 OD492 nm

Q. Item under review: SC05-157 (scFv, Vl 138-247); also called single-chain phage antibody SC05-157) scFv: EVQLVESGAEVKKPGESLKISCKGSGYSFTNYWIGWVRQMPGKGLEWMGIVYPGDSDTRYSPSFQGQVTISADKSISTAYLQWSSLKASDTAVYYCARRMAVAGSDAFDIWGQGTMVTVSSGTGGSGGTGSGTGGSTQAVLTQPSSASGTPGQTVTISCSGSTSNIGSHNVNWYQHLPGTAPKLLIYINNKRPSGVPDRFSGSKSGSSASLAISGLQSEDEADYYCAAWDDSLRRPVFGGGTQLTVL . Reported OD492 nm?
A. 0.058 OD492 nm
